Provenance of the data: ChEMBL document CHEMBL1671699

# experimentDescription: Drug level in lung transplant recipient alveolar cell at 400 mg, po every 12 hrs after 12 hrs by LS/MS analysis
# Assay type: ADME, organism-based, Pneumocyte
# testConditions: human, alveolar cells, read-out: Drug uptake

- compound: "CC[C@@H]([C@H](C)O)n1ncn(-c2ccc(N3CCN(c4ccc(OC[C@@H]5CO[C@@](Cn6cncn6)(c6ccc(F)cc6F)C5)cc4)CC3)cc2)c1=O [POSACONAZOLE]"
  concentration at 12 h [ng/mL]: 36800

----------
# experimentDescription: Ratio of drug level in lung transplant human recipient epithelial lining fluid to plasma at 400 mg, po every 12 hrs after 12 hrs by LS/MS analysis
# Format: ADME, organism-based

- chemicalSmiles: "CC[C@@H]([C@H](C)O)n1ncn(-c2ccc(N3CCN(c4ccc(OC[C@@H]5CO[C@@](Cn6cncn6)(c6ccc(F)cc6F)C5)cc4)CC3)cc2)c1=O"
  Kp at 12 h: 1

----------
# experimentDescription: Cmin in lung transplant recipient alveolar cell at 400 mg, po every 12 hrs after 12 hrs by LC/MS analysis
# Assay type: ADME, organism-based, Pneumocyte
# testConditions: human, alveolar cells, read-out: Cmin

- chemicalSmiles: "CC[C@@H]([C@H](C)O)n1ncn(-c2ccc(N3CCN(c4ccc(OC[C@@H]5CO[C@@](Cn6cncn6)(c6ccc(F)cc6F)C5)cc4)CC3)cc2)c1=O"
  outputUnit: "ng/mL"
  concentration at 12 h: 31300

----------
# experimentDescription: Ratio of drug level in lung transplant human recipient epithelial lining fluid to plasma at 400 mg, po every 12 hrs after 3 hrs by LS/MS analysis
# Type: ADME, organism-based
readout: Kp at 3 h

- chemicalSmiles: "CC[C@@H]([C@H](C)O)n1ncn(-c2ccc(N3CCN(c4ccc(OC[C@@H]5CO[C@@](Cn6cncn6)(c6ccc(F)cc6F)C5)cc4)CC3)cc2)c1=O"
  value: 0.94

----------
# experimentDescription: Drug level in lung transplant recipient plasma at 400 mg, po every 12 hrs after 5 hrs by LS/MS analysis
# Assay type: ADME, organism-based
# testConditions: human, read-out: Drug uptake
readout: concentration at 5 h (ng/mL)

- molecule: "CC[C@@H]([C@H](C)O)n1ncn(-c2ccc(N3CCN(c4ccc(OC[C@@H]5CO[C@@](Cn6cncn6)(c6ccc(F)cc6F)C5)cc4)CC3)cc2)c1=O [POSACONAZOLE]"
  readout: "concentration at 5 h"
  value: 1100

----------
# experimentDescription: Drug level in lung transplant recipient epithelial lining fluid at 400 mg, po every 12 hrs after 3 hrs by LS/MS analysis
# Type: ADME, organism-based
# testConditions: human, read-out: Drug uptake

- compound: "CC[C@@H]([C@H](C)O)n1ncn(-c2ccc(N3CCN(c4ccc(OC[C@@H]5CO[C@@](Cn6cncn6)(c6ccc(F)cc6F)C5)cc4)CC3)cc2)c1=O [POSACONAZOLE]"
  outputUnit: "ng/mL"
  concentration at 3 h: 1100

----------
# experimentDescription: Cmin in lung transplant recipient plasma at 400 mg, po every 12 hrs after 12 hrs by LC/MS analysis
# Assay type: ADME, organism-based
# testConditions: human, read-out: Cmin

- compound: "CC[C@@H]([C@H](C)O)n1ncn(-c2ccc(N3CCN(c4ccc(OC[C@@H]5CO[C@@](Cn6cncn6)(c6ccc(F)cc6F)C5)cc4)CC3)cc2)c1=O [POSACONAZOLE]"
  concentration at 12 h [ng/mL]: 810
